These data points were gathered from ChEMBL document CHEMBL1201862.

# Test system: NCI/ADR-RES
# method-notes: NCI tumour cell line growth inhibition, 48 h
Calls of active or inactive are those of the source. Cut-off read from the data, not from the text of the source: active = GI50 up to about 1.1 µM and inactive = higher.
measured-parameter: GI50

Cc1ccccc1C1=C/C(=C(\SS/C(C(=O)c2ccc(OCC(=O)O)c(Cl)c2Cl)=C2\C=C(c3ccccc3C)SS2)C(=O)c2ccc(OCC(=O)O)c(Cl)c2Cl)SS1 | 63 µM (inactive)

Hi there! I need GI50 for each item below, if you can.
1. O=c1cc(O)ccn1C1C=C(CO)C(O)C1O (stereo not given)
2. [O-]c1c[n+](-c2ccccc2)no1
3. COC1OC(C(=O)O)C2OC(C)(C)OC12 (stereo not given)

1. > 625 µM (inactive)
2. > 100 µM (inactive)
3. > 100 µM (inactive)

Hi there! I need GI50 for each item below, if you can.
1. CC1(C)OCC(C(O)C2OC(C)(C)OC2C=O)O1 (stereo not given)
2. COC(=O)C1(c2cc3ccccc3n2S(=O)(=O)c2ccccc2)CC2C=CC1NC2 (stereo not given)
3. CCCCCC/C=C\CCCCCCCCCc1cccc(O)c1C(=O)O [GINKGOLIC ACID 17:1]
4. Cc1c2ccccc2c(/C=N/NC(=O)CSCC(=O)N/N=C/c2c3ccccc3c(C)c3ccccc23)c2ccccc12
5. Clc1cccc(C2ON=C(c3ccccc3)N2C23CC4CC(CC(C4)C2)C3)c1Cl (stereo not given)
6. Cc1cc2nc3c(C#N)c(C)c(CCCl)c(Cl)n3c2cc1C

1. > 100 µM (inactive)
2. 2.42 µM (inactive)
3. > 100 µM (inactive)
4. > 63.5 µM (inactive)
5. > 10 µM (inactive)
6. 3.18 µM (inactive)
